B1: LINE1-mini (parent)
chain: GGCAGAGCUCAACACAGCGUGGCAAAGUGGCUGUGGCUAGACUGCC

Variants of: B1
assay.summary: self-cleavage, relative activity (ratio to wild type); higher = more cleavage; in vitro, sequencing; the parent is a self-cleaving ribozyme
Field: class. Source value: self-cleavage. Ranges: b0 (below 0.07), b1 (0.07 to below 0.2), b2 (0.2 or more)

{"item.sequence": "GGCAGAGCACAACACAGCGUGGCAAAGUGGCUGUGGCUAAACUGCC", "class": "b1"}
{"item.sequence": "GGCAGAGCUCAACACAGCGUGGCAAACUGGCUGUCGCUAGACUGCC", "class": "b2"}
{"item.sequence": "GGCAGAGCACAACACAGCGUGCCAAAGUGGCUGUGGCUAGACUGCC", "class": "b1"}
{"item.sequence": "GGCAGAGCUCAACACAGCGUGGCAAAGUGGCUGUGGCUAGAUUGUC", "class": "b2"}

Prompt line: Into which bin does this variant go? `GGCAGAGCUUAACACAGCGUGGCAAAGUGGCUGUGGCUCGACUGCC`
Response line: b1

Prompt line: Into which bin does this variant go? `GGCAGAGCUCAACACAGUGUGGCAAAGUGGCUGUGGCUAGACUGCA`
Response line: b2

Prompt line: Into which bin does this variant go? `GGCAGAGCUCAACACAGCGGGGGAAAGUGGCUGUGGCUAGACUGCC`
Response line: b2

Prompt line: Into which bin does this variant go? `AGCAGAGCACAACACAGCGUGGCAAAGUGGCUGUGGCUAGACUGCC`
Response line: b2

Prompt line: Into which bin does this variant go? `GUCAGAGCUCAACACAGCGUGGCAAAGUGGCUGGGGCUAGACUGCC`
Response line: b0
